- Test system: P388 leukemia ip, CD2F1 mice, survival T/C
- Assay Name: NCI In Vivo Anticancer Drug Screen. Data for tumor model P388 Leukemia (intraperitoneal) in CD2F1 (CDF1) mice
- Experimental Conditions: endpoint: median survival time; dose: 12.5 mg/kg/injection; schedule: Q01DX005 (ip); vehicle: saline with Tween-80; higher = longer survival
Toxic doses and inconclusive results are not listed.
Readout Type: T/C

// query # T/C lookup, item "Nc1nc2cc3[nH]ncc3cc2c(=O)[nH]1"
// result 98 % of control

// query For the compound CCOC(=O)N1CCN(C(=S)NNC(C)c2cc3ccccc3cn2)CC1 (configuration not stated) , what T/C is on record?
// result 113 % of control

// query // T/C lookup, key: "O=C(O)c1cc2ccccc2c(N=Nc2cc(C(F)(F)F)ccc2Cl)c1O"
// result 102 % of control

// query Recorded T/C of "Cc1cc2c(C(C)C)c(O)c(O)c(C=NC3CCCCC3)c2c(O)c1-c1c(C)cc2c(C(C)C)c(O)c(O)c(C=NC3CCCCC3)c2c1O" , please.
// result 103 % of control

// query Request the reported T/C associated with COC1(OC)CCC(=O)N(Cc2ccccc2)c2cc(C)c(N(Cc3ccccc3)S(=O)(=O)c3ccc(C)cc3)cc2C1C (configuration not stated)
// result 95 % of control

// query GET /values?readout=T/C&item= "NC(=O)c1[nH]cnc1O"
// result 114 % of control

// query Give the measured T/C of "N#CCc1ccccc1C#N" .
// result 100 % of control

----------
- Test system: P388 leukemia ip, CD2F1 mice, survival T/C
- Assay Name: NCI In Vivo Anticancer Drug Screen. Data for tumor model P388 Leukemia (intraperitoneal) in CD2F1 (CDF1) mice
- Experimental Conditions: endpoint: median survival time; dose: 100.0 mg/kg/injection; schedule: Q01DX009 (ip); vehicle: saline with Tween-80; higher = longer survival
Inconclusive results and toxic doses are left out.
Can you tell me T/C for the items I'm about to list?

// query I am curious: what T/C value has been reported for COc1ccc(C(=O)C2Cc3c(ccc4ccccc34)OC2=O)cc1 (configuration not stated) ?
// result 91 % of control

// query Would you mind telling me what T/C value was observed for "COC(=O)/C=C/C=C(c1ccccc1)c1ccccc1" ?
// result 104 % of control

// query Name the reported T/C value associated with the molecule "Nc1nc(Nc2ccccc2)nc(SCc2ccccc2)n1"
// result 88 % of control

// query Fill in: T/C of "C[n+]1ccc(/C=C/c2ccccc2)cc1" is ___
// result 95 % of control

// query Please look up its T/C: "CCOC(CNc1c[nH]c(=O)[nH]c1=O)OCC"
// result 100 % of control

// query Recorded T/C for Cc1ccccc1C(C)(C#N)Nc1ccccc1 (configuration not stated) , please?
// result 100 % of control

// query Please give the measured T/C for this molecule: "O=C1NC(=Nc2ccccc2)N(c2ccccc2)C1=Nc1ccccc1"
// result 91 % of control

// query I'd like to know its T/C. The molecule in question is CCC1C2Cc3ccc(O)cc3C1(CC)CCN2Cc1ccoc1 (configuration not stated)
// result 88 % of control

// query If you can, please state the reported T/C value of "CCOC(=O)c1ccc(NC(CCC(C#N)(C#N)CCC(=NC(C)(C)C)Nc2ccc(C(=O)OCC)cc2)=NC(C)(C)C)cc1" .
// result 95 % of control

// query Using the record for "Cc1ccc(S(=O)(=O)Nc2cc(C)cc(CCNC=O)c2C)cc1" , report its T/C.
// result 94 % of control

// query Quick one: T/C for COC(=O)C(Br)C(Br)c1ccccc1 (configuration not stated) ?
// result 91 % of control

// query Would you mind telling me what T/C value was observed for O=C1C2(CC3C=CC2C3)C(=O)C12CC1C=CC2C1 (configuration not stated) ?
// result 100 % of control

// query Request the reported T/C associated with "Nc1ncc2c(=O)c3c(ccc4ccccc43)oc2n1"
// result 87 % of control

// query Find the recorded T/C belonging to "O=C1CSC=C(c2ccccc2)O1" and report it.
// result 104 % of control

// query What value of T/C has been reported for the following molecule? "Cc1ccc(S(=O)(=O)N(Cc2ccccc2)S(=O)(=O)c2ccc(C)cc2)cc1"
// result 101 % of control

// query Give its T/C value. Item: "Cn1cnc([N+](=O)[O-])c1N"
// result 106 % of control

// query Given the molecule CC(C)(C)C1CCC(=O)C2(CCCC2)C1 (configuration not stated) , what is its reported T/C?
// result 114 % of control

// query Name the reported T/C value associated with the molecule OC(C1CO1)C(O)C1CO1 (configuration not stated)
// result 109 % of control

// query Find the recorded T/C belonging to CC(NC(=O)OCc1ccccc1)C(=O)Oc1cc(Cl)c(Cl)cc1Cl (configuration not stated) and report it.
// result 104 % of control

// query Form field: reported T/C of OC1(c2ccccc2)CN(Cc2ccccc2)CC(c2ccccc2)O1 (configuration not stated)
// result 98 % of control

// query Given the entry "Cc1cc([N+](=O)[O-])c(C)c(Br)c1C" , report its measured T/C.
// result 92 % of control

// query For the molecule shown here, "CC(=O)Nc1nc(NC(C)=O)c(N=O)c(NC(C)=O)n1" , give the reported T/C.
// result 94 % of control

----------
- System: P388 leukemia ip, CD2F1 mice, survival T/C
- Assay Name: NCI In Vivo Anticancer Drug Screen. Data for tumor model P388 Leukemia (intraperitoneal) in CD2F1 (CDF1) mice
- Experimental Conditions: endpoint: median survival time; dose: 100.0 mg/kg/injection; schedule: Q01DX009 (ip); vehicle: Klucel (hydroxypropylcellulose) (HPC); higher = longer survival
Inconclusive results and toxic doses are left out.
So I've got a bunch of compounds here, and I need their T/C values.

// query Find the recorded T/C belonging to CCCCNC(=S)NC1C2CC3CC(C2)CC1C3 (configuration not stated) and report it.
// result 98 % of control

// query Reported T/C, compound "O=C(O)CC12CC3CC(CC(O)(C3)C1)C2" : ____
// result 109 % of control

// query Look at this compound and give its reported T/C. "CCCCCCC(=O)C(=O)c1ccc(O)c(C)c1O"
// result 93 % of control

// query Value lookup for T/C; key = "CN(C)C(=O)N1CCc2ccc([N+](=O)[O-])cc21"
// result 100 % of control

// query Requested read-out: T/C. Entry: COC1C(/C=[N+](\[O-])C2C(C3COC(C)(C)O3)OC3OC(C)(C)OC32)OC2OC(C)(C)OC21 (configuration not stated)
// result 103 % of control

// query Returns the measured T/C for the input compound. Input: "CSc1cccc(NC(=O)OCCOc2ccc([N+](=O)[O-])cc2)c1"
// result 101 % of control

// query I have this compound here, "Cc1cccc2c1CN1CC(=O)NC1=N2" , and I need its recorded T/C.
// result 97 % of control

// query For the compound "COc1ccccc1N=Cc1ccc(C=Nc2ccccc2OC)cc1" , what T/C is on record?
// result 98 % of control

// query Give its T/C value. Item: CCN(CC)C(=O)C(F)C(F)(F)C(F)(F)C(F)C(=O)N(CC)CC (configuration not stated)
// result 99 % of control

// query Fill in the blank: the reported T/C of "O=C([CH-]C(=O)C(F)(F)F)c1ccccc1.O=C([CH-]C(=O)C(F)(F)F)c1ccccc1.O=C([CH-]C(=O)C(F)(F)F)c1ccccc1.O=C([CH-]C(=O)C(F)(F)F)c1ccccc1.[Eu+3].c1ccncc1" is ____.
// result 104 % of control

// query I'd like to know its T/C. The compound in question is O=C1CCC(C(Sc2ccccc2)Sc2ccccc2)C1 (configuration not stated)
// result 106 % of control

// query Fill in: T/C of "Cc1ccc(/C(CBr)=N/N=C(/CBr)c2ccc(C)cc2)cc1" is ___
// result 92 % of control

// query Which measured T/C value corresponds to CCCC(C)C1(CC(C)O)C(=O)NC(=O)NC1=O (configuration not stated) ?
// result 104 % of control

// query // lookup T/C for "Cn1nnc(/C(N)=N/N=C/c2ccccc2)n1"
// result 102 % of control

// query Field request: T/C | item: NC(CSSCC(N)C(=O)O)C(=O)O (configuration not stated)
// result 105 % of control

// query Can you look up the measured T/C of "CCCCCCCCCCC(=O)C(=O)c1ccc(O)cc1O" for me?
// result 112 % of control

// query Returns the measured T/C for the input compound. Input: "O=S1(=O)OC2(CCCCC2)c2ccccc21"
// result 108 % of control

// query Fill in: T/C of "CC(=O)/C(=N/O)C(C)=NCc1ccccc1" is ___
// result 88 % of control

// query Please give the measured T/C for this compound: CC(C)(C)OC(=O)NC(CCCCNC(=O)C(F)(F)F)C(=O)O (configuration not stated)
// result 104 % of control

// query Entry under review: "C[C@]12C=CC(=O)C=C1CC[C@@H]1[C@@H]2CC[C@@]2(C)[C@H]1CC[C@]2(C)O" . Reported T/C?
// result 110 % of control

// query Need T/C of "Cc1ccc(S(=O)(=O)N/N=C/c2ccccc2Cl)cc1" , thanks.
// result 106 % of control

// query Look up T/C: "CC(C)n1nnnc1-c1ccccc1"
// result 94 % of control

// query Would you kindly share the measured T/C for Cc1noc2c1N=C(c1ccccc1O)CC(c1ccccc1)C2 (configuration not stated) ?
// result 110 % of control

// query Which measured T/C value corresponds to C/C=C(\C)C(=O)OC1C(O)C(C)(C)C2C3C(=O)C=C(C)C2C3(C)C1OC(=O)/C(C)=C/C (configuration not stated) ?
// result 103 % of control

// query Requested field: T/C. Item: "OC1(c2ccc(C3(O)C(c4ccccc4)=C(c4ccccc4)C(c4ccccc4)=C3c3ccccc3)cc2)C(c2ccccc2)=C(c2ccccc2)C(c2ccccc2)=C1c1ccccc1"
// result 86 % of control

// query Quick one: T/C of "O=c1nc(-c2ccccc2)sc(=O)[nH]1" ?
// result 111 % of control

// query Look up T/C: C=CC(C)(O)/C=C/C=C(\C)C(CC1OC1(C)C)OC(=O)/C(C)=C\C (configuration not stated)
// result 107 % of control
